target: wild-type EGFR expressed on cells (human), P00533; assay: flow cytometry, A431 cells; conditions: remark: other sources report otherwise
Parameter: % positive. Scope: all listed entries.
Unit % implied. Number only.

Recorded % positive, per entry:
12B2 (antibody, V domains shown) VH: QVTLKESGPVLVKPTETLTLTCTVSGFSLSNPRMGVSWIRQPPGKALEWLGHIFSSDEKSYRLSLRSRLSISKDTSKSQVVLTMTNMDPVDTATYYCVRDSSNYGGYFDYWGQGTLVTVSS VL: EVVMTQSPATLSVSPGERATLSCRASQSVINNLAWYQQKPGQAPRLLIYGTSTRATDIPARFSGSGSGTEFTLTISSLQSEDFAVYYCQDYNNWPFTFGPGTKVDIK	0.8
12H6 (antibody, V domains shown) VH: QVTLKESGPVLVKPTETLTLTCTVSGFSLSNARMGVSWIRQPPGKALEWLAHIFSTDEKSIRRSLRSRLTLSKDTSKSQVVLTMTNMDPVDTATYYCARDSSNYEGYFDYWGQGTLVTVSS VL: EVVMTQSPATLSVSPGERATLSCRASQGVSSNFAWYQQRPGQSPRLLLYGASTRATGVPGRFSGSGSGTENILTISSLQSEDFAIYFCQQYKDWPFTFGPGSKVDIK	0.8
11F10 (antibody, V domains shown) VH: QVTLKESGPVLVKPIETLTLTCTVCGFSLSNPRMGVSWIRQPPGKALEWLGHIFSSDEKSYRLFLRSRLSISKDTSKSQVVLTMTNMDPVDTATYYCARDSSDYEGYFDYWGQGTLVTVSS VL: EIVMTQSPATLSVSPGERTTLSCRASQSVGSNLAWYQQKPGQAPRLLIYGASTRASGVPARFSGSGSGTEFTLTISSLQSEDFAVYSCQEYNNWPFTFGQGTKVEIK	1.1
42G9 (antibody, V domains shown) VH: QVTLKESGPVLLKPTETLTLTCTVSGFSLSNPRMGVSWIRQPPGKALEWFAHIFSTDEKSLKLSLRSRLTLSKDTSKSQVVLTMTNMAPVDSATYYCARDSSNYEGYFDFWGQGTLVTVSS VL: EVVLTQSPATLSVSPGERATLSCRASQSVRSNLAWYQQKSGQAPRLLIYGSTIRATGVPARFSGSGSGTEFTLTISSLQSEDFAVYYCQQYSDWPFTFGPGTKVDIK	0.3
20E12 (antibody, V domains shown) VH: EVNLVESGGGLVKPGGSLRLSCEASGFTFSYAWMSWVRQAPGKGLEWVGRIKSIADGGATDYAAPVRNRFTISRDDSRNTLYLEMHSLKTEDTAVYYCTTIPGNDAFDMWGQGTMVTVSS VL: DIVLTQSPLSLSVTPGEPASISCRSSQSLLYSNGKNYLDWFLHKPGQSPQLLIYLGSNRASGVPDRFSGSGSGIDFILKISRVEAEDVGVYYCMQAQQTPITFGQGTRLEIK	2.6

## Task Quick one: % positive of 30D8 (antibody, V domains shown) VH: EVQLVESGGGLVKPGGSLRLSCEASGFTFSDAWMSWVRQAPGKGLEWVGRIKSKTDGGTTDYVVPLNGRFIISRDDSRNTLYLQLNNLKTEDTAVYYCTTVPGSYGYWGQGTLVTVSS VL: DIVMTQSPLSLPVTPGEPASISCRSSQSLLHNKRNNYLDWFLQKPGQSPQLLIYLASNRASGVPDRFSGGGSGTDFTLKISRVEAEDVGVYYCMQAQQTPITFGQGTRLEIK ?
## Result 1.3

## Task Quick one: % positive of 29D5 (antibody, V domains shown) VH: QVTLKESGPVLVKPTETLTLTCTVSGFSLSNPRMGVSWLRQPPGKALEWFAHIFSTDEKSYSPSLRGRLTVSKDTSKSQVVLTLTNMDPVDTATYYCARDSSNYEGYFDYWGQGTLVTVSS VL: KIVMTQSPATLSVSPGERATLSCRANQIVSSNLAWYQQKPGQAPRLLVFGTSTRATGIPIRFSGSGSGTEFTLTVSSLQSEDFAVYVCQQYNDWPFTFGPGTKVDIK ?
## Result 0.4

## Task Quick one: % positive of 21E7 (antibody, V domains shown) VH: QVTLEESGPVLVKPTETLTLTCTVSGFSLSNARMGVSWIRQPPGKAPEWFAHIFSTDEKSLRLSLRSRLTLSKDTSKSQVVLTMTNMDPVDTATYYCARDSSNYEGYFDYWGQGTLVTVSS VL: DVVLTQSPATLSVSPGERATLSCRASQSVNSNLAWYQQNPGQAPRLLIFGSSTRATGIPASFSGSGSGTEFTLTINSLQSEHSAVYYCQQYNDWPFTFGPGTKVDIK ?
## Result 1.1

## Task Quick one: % positive of 34E7 (antibody, V domains shown) VH: EVNLVESGGGLVKPGGSLRLSCEASGFTFSYAWMSWVRQAPGKGLEWVGRIKSINDGGATDYASPVRNRFTISRDDSRNMLYLEMHSLKTEDTAVYYCTTIPGNDAFDMWGQGTLVTVSS VL: DIVLTQSPLSLSVTPGEPASISCRSTQSLLYSNGKNYLDWFLHKPGQSPQLLIFLGSIRASGVPDRFSGSGSGIDFILKISRVEAEDVGVYYCMQAQQTPITFGQGTRLEIK ?
## Result 1.1

## Task Quick one: % positive of 26B9 (antibody, V domains shown) VH: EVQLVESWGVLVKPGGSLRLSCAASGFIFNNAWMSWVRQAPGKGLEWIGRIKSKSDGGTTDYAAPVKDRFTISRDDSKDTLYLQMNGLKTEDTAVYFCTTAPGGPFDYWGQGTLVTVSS VL: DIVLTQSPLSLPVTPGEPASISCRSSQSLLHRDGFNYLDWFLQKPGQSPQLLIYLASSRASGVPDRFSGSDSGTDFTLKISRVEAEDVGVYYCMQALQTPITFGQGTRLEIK ?
## Result 1.7

## Task Quick one: % positive of 49B11 (antibody, V domains shown) VH: QVTLKESGPVLVKPTETLTLTCTVSGFSLSNVRMGVSWIRQPPGKALEWFAHIFSSDEKSIRRSLRSRLTLSKDTSKSQVVLTMTNMDPVDTATYYCARDSSNYEGYFDYWGQGTLVTVSS VL: EMEVTQSPATLSVSPGERATLSCRASQNIGSDLAWYQQQSGQAPRLLISGASTRATGVPTRFSGSGSGTDFTLTITSLQSEDFAVYYCQQYNDWPFTFGPGTKVDIK ?
## Result 0.8
